TARGET_ENTITY: DNA topoisomerase II (Homo sapiens, UniProt P11388+Q02880)
PROCEDURE_DETAILS: In vitro inhibition of human DNA topoisomerase II activity.
Type: protein assay
CONDITIONS_USED: concentration not given here
The label depends only on inhibition: Fulfilled if it is at least 6%, Not fulfilled if it is smaller.

- LINE_NOTATION: "CCOc1ccccc1/N=C1/C(=O)c2cncnc2C(O)=C1Cl"
  ASSIGNED_LABEL: "Not fulfilled"
- LINE_NOTATION: "Cc1ccc(NC2=C(Cl)C(=O)c3ncncc3C2=O)cc1C"
  ASSIGNED_LABEL: "Fulfilled"
- LINE_NOTATION: "Cc1cccc(NC2=C(Cl)C(=O)c3ncncc3C2=O)c1"
  ASSIGNED_LABEL: "Not fulfilled"
- LINE_NOTATION: "O=C1C(Nc2ccccc2Br)=C(Cl)C(=O)c2ncncc21"
  ASSIGNED_LABEL: "Fulfilled"
- LINE_NOTATION: "Cc1ccc(NC2=C(Cl)C(=O)c3ncncc3C2=O)cc1"
  ASSIGNED_LABEL: "Not fulfilled"
- LINE_NOTATION: "Cc1ccc(/N=C2/C(=O)c3cncnc3C(O)=C2Cl)c(Br)c1"
  ASSIGNED_LABEL: "Fulfilled"
- LINE_NOTATION: "O=C1C(Nc2ccccc2)=C(Cl)C(=O)c2ncncc21"
  ASSIGNED_LABEL: "Fulfilled"
- LINE_NOTATION: "COc1ccc(/N=C2/C(=O)c3cncnc3C(O)=C2Cl)c(OC)c1"
  ASSIGNED_LABEL: "Fulfilled"
- LINE_NOTATION: "O=C1C(Nc2ccc(Br)cc2)=C(Cl)C(=O)c2ncncc21"
  ASSIGNED_LABEL: "Fulfilled"
- LINE_NOTATION: "O=C1C(Nc2cccc(Cl)c2)=C(Cl)C(=O)c2ncncc21"
  ASSIGNED_LABEL: "Not fulfilled"
- LINE_NOTATION: "O=C1C(Nc2cccc(Br)c2)=C(Cl)C(=O)c2ncncc21"
  ASSIGNED_LABEL: "Not fulfilled"
- LINE_NOTATION: "COc1cc([C@@H]2c3cc4c(cc3[C@@H](O[C@@H]3O[C@@H]5CO[C@@H](C)O[C@H]5[C@H](O)[C@H]3O)[C@H]3COC(=O)[C@H]23)OCO4)cc(OC)c1O"
  ASSIGNED_LABEL: "Fulfilled"
- LINE_NOTATION: "CCc1ccccc1/N=C1/C(=O)c2cncnc2C(O)=C1Cl"
  ASSIGNED_LABEL: "Fulfilled"
- LINE_NOTATION: "CCc1ccc(NC2=C(Cl)C(=O)c3ncncc3C2=O)cc1"
  ASSIGNED_LABEL: "Not fulfilled"
- LINE_NOTATION: "O=C1C(Nc2ccc3c(c2)OCO3)=C(Cl)C(=O)c2ncncc21"
  ASSIGNED_LABEL: "Not fulfilled"
